Cited source for all entries: patent US20170355757A1

Below, each entry is listed alongside its reported kon.
- system tested: T1, Human C5 (human, UniProt P01031 19-1676)
- T1 construct: The natural protein has a beta and an alpha chain; also called complement factor 5; complement component 5
- assay details: SPR, mAb captured by anti-hFc, 25C

| binder | kon |
| --- | --- |
| H4H12166P7 (antibody, human IgG4, V domains shown, human IgG4 Fc with S108P hinge mutation) VH: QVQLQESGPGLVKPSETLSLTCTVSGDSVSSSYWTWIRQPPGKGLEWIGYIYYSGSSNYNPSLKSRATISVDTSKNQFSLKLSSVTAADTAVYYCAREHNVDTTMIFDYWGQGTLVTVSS VL: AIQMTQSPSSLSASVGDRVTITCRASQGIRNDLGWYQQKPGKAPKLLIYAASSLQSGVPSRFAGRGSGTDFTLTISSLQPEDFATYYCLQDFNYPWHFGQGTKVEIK | 274000 M⁻¹ s⁻¹ |
| H4H12168P (antibody, human IgG4, V domains shown) VH: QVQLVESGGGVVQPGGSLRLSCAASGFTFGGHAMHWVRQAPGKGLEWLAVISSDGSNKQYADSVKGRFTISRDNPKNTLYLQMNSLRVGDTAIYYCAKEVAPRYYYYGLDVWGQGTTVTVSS VL: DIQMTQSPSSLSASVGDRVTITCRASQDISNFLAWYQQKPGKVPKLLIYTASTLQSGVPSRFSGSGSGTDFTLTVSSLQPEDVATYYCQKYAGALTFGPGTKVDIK | 423000 M⁻¹ s⁻¹ |
| H4H12166P2 (antibody, human IgG4, V domains shown, human IgG4 Fc with S108P hinge mutation) VH: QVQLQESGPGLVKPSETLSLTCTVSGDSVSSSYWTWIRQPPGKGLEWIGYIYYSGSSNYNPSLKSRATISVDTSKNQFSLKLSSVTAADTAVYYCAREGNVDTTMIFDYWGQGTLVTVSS VL: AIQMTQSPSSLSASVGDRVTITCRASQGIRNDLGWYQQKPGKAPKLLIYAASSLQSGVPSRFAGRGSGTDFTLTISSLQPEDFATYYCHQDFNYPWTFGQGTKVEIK | 826000 M⁻¹ s⁻¹ |
| H4H12164P (antibody, human IgG4, V domains shown) VH: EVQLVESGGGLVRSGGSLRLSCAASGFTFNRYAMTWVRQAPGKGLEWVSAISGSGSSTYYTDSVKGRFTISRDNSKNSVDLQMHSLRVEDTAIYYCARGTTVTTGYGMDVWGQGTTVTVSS VL: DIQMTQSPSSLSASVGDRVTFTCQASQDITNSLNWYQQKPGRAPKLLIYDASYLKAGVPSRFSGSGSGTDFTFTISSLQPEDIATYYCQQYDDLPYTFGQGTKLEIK | 292000 M⁻¹ s⁻¹ |
| H4H12166P10 (antibody, human IgG4, V domains shown, human IgG4 Fc with S108P hinge mutation) VH: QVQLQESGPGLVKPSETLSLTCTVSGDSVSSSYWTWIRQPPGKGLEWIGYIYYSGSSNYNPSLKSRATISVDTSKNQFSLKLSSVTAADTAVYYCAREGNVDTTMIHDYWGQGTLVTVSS VL: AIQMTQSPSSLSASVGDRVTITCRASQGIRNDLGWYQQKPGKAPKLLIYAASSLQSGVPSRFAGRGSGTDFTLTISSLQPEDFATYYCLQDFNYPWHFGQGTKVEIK | 157000 M⁻¹ s⁻¹ |
